Ref: patent US20240208968A1

Biological target: αvβ6 (Homo sapiens, UniProt P06756+P18564)
Sequence (P06756 31-992 limits assumed): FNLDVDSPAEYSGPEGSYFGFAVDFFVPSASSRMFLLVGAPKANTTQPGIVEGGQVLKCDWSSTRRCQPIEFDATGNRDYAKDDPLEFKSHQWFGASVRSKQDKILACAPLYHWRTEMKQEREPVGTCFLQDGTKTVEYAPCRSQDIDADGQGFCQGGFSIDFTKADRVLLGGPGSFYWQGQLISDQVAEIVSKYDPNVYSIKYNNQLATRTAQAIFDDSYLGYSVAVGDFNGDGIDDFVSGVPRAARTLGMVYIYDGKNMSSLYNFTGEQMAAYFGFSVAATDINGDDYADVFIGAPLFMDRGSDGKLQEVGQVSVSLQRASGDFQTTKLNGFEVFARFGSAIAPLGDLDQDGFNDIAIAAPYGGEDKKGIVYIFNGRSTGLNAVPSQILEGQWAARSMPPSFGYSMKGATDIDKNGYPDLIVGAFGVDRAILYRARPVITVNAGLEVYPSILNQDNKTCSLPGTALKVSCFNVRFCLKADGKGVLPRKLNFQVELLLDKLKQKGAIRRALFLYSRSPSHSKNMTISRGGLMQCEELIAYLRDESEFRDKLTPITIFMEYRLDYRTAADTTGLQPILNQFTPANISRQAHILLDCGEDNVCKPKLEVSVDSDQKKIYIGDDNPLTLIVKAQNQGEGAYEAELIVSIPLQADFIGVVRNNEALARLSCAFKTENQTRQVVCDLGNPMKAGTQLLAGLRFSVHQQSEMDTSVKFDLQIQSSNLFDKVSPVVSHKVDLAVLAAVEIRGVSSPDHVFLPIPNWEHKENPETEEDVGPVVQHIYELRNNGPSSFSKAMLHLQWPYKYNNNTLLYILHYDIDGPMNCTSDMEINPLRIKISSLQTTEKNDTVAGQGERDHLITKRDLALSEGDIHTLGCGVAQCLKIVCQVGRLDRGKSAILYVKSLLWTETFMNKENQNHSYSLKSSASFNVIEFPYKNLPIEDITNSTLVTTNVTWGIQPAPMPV
Sequence (P18564 22-707 limits assumed): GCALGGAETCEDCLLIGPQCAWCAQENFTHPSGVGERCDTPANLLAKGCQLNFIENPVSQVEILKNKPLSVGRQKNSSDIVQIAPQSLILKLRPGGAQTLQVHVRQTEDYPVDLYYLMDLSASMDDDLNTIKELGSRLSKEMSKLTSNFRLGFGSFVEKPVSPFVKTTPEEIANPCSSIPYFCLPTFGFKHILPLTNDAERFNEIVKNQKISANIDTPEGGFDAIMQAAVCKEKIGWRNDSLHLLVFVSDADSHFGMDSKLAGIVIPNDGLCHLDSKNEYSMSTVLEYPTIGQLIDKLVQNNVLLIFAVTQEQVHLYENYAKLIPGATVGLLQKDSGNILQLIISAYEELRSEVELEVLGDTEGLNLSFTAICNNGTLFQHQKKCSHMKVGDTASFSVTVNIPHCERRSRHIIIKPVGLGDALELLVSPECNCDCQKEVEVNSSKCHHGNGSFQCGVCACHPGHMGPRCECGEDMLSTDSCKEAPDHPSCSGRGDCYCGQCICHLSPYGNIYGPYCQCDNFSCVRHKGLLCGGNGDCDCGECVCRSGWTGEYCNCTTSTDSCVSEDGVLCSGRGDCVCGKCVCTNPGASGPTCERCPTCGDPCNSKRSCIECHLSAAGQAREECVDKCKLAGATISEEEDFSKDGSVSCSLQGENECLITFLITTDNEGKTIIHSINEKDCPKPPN
Assay: Solid Phase Integrin αvβ6 Assay
Method: The compounds exemplified in this document were tested for their ability to inhibit αvβ1 and αvβ6 in below described solid phase integrin assays. Solid Phase Integrin αvβ6 Assay 96-well microtiter plates (4 HBX Immulon; Thermo Fisher Scientific, Waltham, MA) were coated with 100 μL/well of 1 μg/mL recombinant TGFb1-LAP in TBS at 4° C., overnight. […] Bound protein was detected using the substrate TMB. […]
pIC50: −log10 of the molar value. Structures can show the parent of a compound that is named as a salt.
Experimental Endpoint: pIC50

Some solved entries appear below for comparison.
# Molecule, pIC50
records = [
    ("C[C@@H]1CC[C@H](C(=O)N[C@@H](CC(=O)O)c2ccccc2)CN1CCCc1ccc2c(n1)NCCC2 [Compound 346]", "> 7.00"),
    ("O=C(O)[C@H](CCO[C@H]1CCCN(CCCc2ccc3c(n2)NCCC3)C1)NC(=O)C12CCC(CC1)CC2 [Compound 447]", "> 7.00"),
    ("O=C(NC[C@@H](C(=O)O)c1cccc(Oc2ccccc2)c1)[C@@H]1CCCN(CCCc2ccc3c(n2)NCCC3)C1 [Compound 251-A]", "6.00 to 7.00"),
]

Now, please, on to the next molecule.
If you can, please state the reported pIC50 value of O=C(O)CC(NC(=O)[C@@H]1CCCN(CCCc2ccc3c(n2)NCCC3)C1)c1cccc2c1CCO2 (stereo partly shown) [Compound 219, hydrochloride] .
> 7.00

---

target: αvβ6 (Homo sapiens, UniProt P06756+P18564); test: Solid Phase Integrin αvβ6 Assay
pIC50: −log10 of the molar value.
Experimental Endpoint: pIC50

Example entries and their recorded answers appear below.
# Cpd Smiles, Experimental Endpoint, Observed Measurement
rows = [
    ("O=C(O)[C@@H](CCO[C@@H]1CCCN(CCc2ccc3c(n2)NCCC3)C1)NC(=O)C12CCC(CC1)CC2", "pIC50", "6.00 to 7.00"),
    ("O=C(NC[C@@H](C(=O)O)c1ccccc1C1CC1)[C@@H]1CCCN(CCCc2ccc3c(n2)NCCC3)C1", "pIC50", "< 6.00"),
    ("O=C(NC[C@H](C(=O)O)c1cccc(N2C[C@@H]3CC[C@H]2CO3)c1)[C@@H]1CCCN(CCCc2ccc3c(n2)NCCC3)C1", "pIC50", "> 7.00"),
    ("O=C(NC[C@H](C(=O)O)c1ccc(C2CC2)cc1)[C@@H]1CCCN(CCCc2ccc3c(n2)NCCC3)C1", "pIC50", "> 7.00"),
    ("O=C(NC[C@@H](C(=O)O)c1cccc(C(F)(F)F)c1)[C@@H]1CCCN(CCCc2ccc3c(n2)NCCC3)C1", "pIC50", "6.00 to 7.00"),
]

Requested field: pIC50. Item: O=C(N[C@@H](CNC(=O)[C@@H]1CCCN(CCCc2ccc3c(n2)NCCC3)C1)C(=O)O)c1ccc(C2CC2)cc1
> 7.00

---

Measured pIC50, listed per entry for reference.
Target: αvβ1 (Homo sapiens, UniProt P05556+P06756)
Sequence (P06756 31-992 limits assumed): as the sequence (P06756 31-992 limits assumed) above
Sequence (P05556 21-728 limits assumed): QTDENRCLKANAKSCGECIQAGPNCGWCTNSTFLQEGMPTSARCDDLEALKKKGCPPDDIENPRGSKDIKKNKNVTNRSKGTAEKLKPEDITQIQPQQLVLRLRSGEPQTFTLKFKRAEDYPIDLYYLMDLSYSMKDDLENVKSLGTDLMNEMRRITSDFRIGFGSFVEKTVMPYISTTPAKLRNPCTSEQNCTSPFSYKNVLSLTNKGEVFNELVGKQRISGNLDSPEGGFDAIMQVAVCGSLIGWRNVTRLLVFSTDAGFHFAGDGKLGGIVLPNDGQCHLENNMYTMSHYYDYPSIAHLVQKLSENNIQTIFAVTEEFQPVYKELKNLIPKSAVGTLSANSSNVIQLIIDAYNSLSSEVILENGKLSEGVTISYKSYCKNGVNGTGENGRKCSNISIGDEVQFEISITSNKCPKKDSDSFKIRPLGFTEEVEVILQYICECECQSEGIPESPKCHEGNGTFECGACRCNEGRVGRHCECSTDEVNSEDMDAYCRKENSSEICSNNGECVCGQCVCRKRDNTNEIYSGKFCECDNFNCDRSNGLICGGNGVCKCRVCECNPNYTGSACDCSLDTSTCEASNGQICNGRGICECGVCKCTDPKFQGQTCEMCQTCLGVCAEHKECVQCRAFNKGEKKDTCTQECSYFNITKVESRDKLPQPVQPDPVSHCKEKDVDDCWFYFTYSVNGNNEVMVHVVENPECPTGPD
Experiment: Solid Phase Integrin αvβ1 Assay
Description: The compounds exemplified in this document were tested for their ability to inhibit αvβ1 and αvβ6 in below described solid phase integrin assays. Solid Phase Integrin αvβ1 Assay 96-well microtiter plates (4 HBX Immulon; Thermo Fisher Scientific, Waltham, MA) were coated with 100 μL/well of 1 μg/mL recombinant TGFb1-LAP in TBS at 4° C., overnight. […] Bound protein was detected using the substrate TMB. […]
pIC50: −log10 of the molar value.

# Molecule, Observed Measurement
rows = [
    ("C[C@@H]1[C@@H](C)OCCN1c1cccc([C@H](CC(=O)O)NC(=O)[C@@H]2CCCN(CCCc3ccc4c(n3)NCCC4)C2)c1 [Compound 585]", "> 7.00"),
    ("O=C(N[C@@H](CNC(=O)[C@@H]1CCCN(CCCc2ccc3c(n2)NCCC3)C1)C(=O)O)c1ccccc1C1CC1 [Compound 371]", "> 7.00"),
    ("O=C(CC[C@@H](C(=O)O)c1ccccc1)N[C@H]1CCN(C(=O)CCCc2ccc3c(n2)NCCC3)C1 [Compound 423]", "< 6.00"),
]

Can you look up the measured pIC50 of C[C@H]1C[C@@H](C(=O)NC[C@H](C(=O)O)c2cccc(-c3ccccc3)c2)CN(CCCc2ccc3c(n2)NCCC3)C1 [Compound 631] for me?
> 7.00

Another molecule to check: O=C(O)C[C@H](CO[C@@H]1CCCN(CCCc2ccc3c(n2)NCCC3)C1)c1cccc(N2C[C@@H]3CC[C@H]2CO3)c1 [Compound 462]
> 7.00

Please answer likewise for O=C(O)C[C@@H](NC(=O)[C@@H]1CCCN(CCCc2ccc3c(n2)NCCC3)C1)c1cnc2ccccc2n1 [Compound 374]
6.00 to 7.00

Further, for O=C(O)[C@@H](CCO[C@@H]1CCCN(CCc2ccc3c(n2)NCCC3)C1)Nc1ncnc2ccccc12 [Compound 406] ?
6.00 to 7.00

Also check O=C(O)C[C@H](CO[C@@H]1CCCN(CCCc2ccc3c(n2)NCCC3)C1)c1cncc(C2CC2)c1 [Compound 489]
> 7.00
